In this section, each of the compounds is paired with its reported IC50.
target: α1 receptor; assay: α-1 receptor binding ([3H]-prazosine, rat cortical membrane)

Completed entries (count: 4):
Data request: Lab note: record IC50 of CCC(=O)N[C@H]1CC[C@H](CCN2CCN(c3cccc4c3CCCC4)CC2)CC1 [Compound 10] tested on α1 receptor.
Data returned: > 200 nM

Data request: Lab note: record IC50 of O=C(N[C@H]1CC[C@H](CCN2CCN(c3cccc4c3CCC4)CC2)CC1)N1CCOCC1 [Compound 6] tested on α1 receptor.
Data returned: 40 to 200 nM

Data request: Lab note: record IC50 of CN(C)C(=O)N[C@H]1CC[C@H](CCN2CCN(c3cccc4c3CCCC4)CC2)CC1 [Compound 11] tested on α1 receptor.
Data returned: 40 to 200 nM

Data request: Lab note: record IC50 of CC(=O)N[C@H]1CC[C@H](CCN2CCN(c3cccc4c3CCCC4)CC2)CC1 [Compound 9] tested on α1 receptor.
Data returned: > 200 nM

Now examine the next entry.
Data request: Lab note: record IC50 of CCNC(=O)N[C@H]1CC[C@H](CCN2CCN(c3cccc4c3CCC4)CC2)CC1 [Compound 5] tested on α1 receptor.
Data returned: 40 to 200 nM
